# target of assay: SpHof1-2
# experiment description: SPOT peptide array binding signal intensity (averaged, normalized) (arbitrary units (background-subtracted, floor 0; scale differs between SH3 domains)); higher = stronger binding of the SH3 domain to the peptide
attribute measured: SPOT peptide array binding signal intensity

In [3]: df
Out[3]:
            binder  result
0  FYNRTAFQLPGDARV     1.5
1  PSRRDSLSIPRAVDA     0.5
2  AHFQPQRTAPKPPIS       2
3  PPLPRAPPVPPATFE     707
4  NMLKKKPLKKPLKRF      26
5  PKMLPIPSKPTLFDL     410

Batch request: SPOT peptide array binding signal intensity per item, same order as input.
1. GATNNAPTLPKRKNP
2. SNRRPVPRRPSQPLN
3. MARRRLPDRPPNGIG
4. IHTRRPSSTSQYLIR
5. VPPVPLPFGIPPFPM
6. VKPRQLFPIPLNKVD
7. PPPPPPPPPPPLPQS

[0.625, 204, 1530, 10.5, 9.5, 5.5, "≤ 0"]

Batch request: SPOT peptide array binding signal intensity per item, same order as input.
1. KTRLRPAFIQQLWSS
2. QTMRQAPKRPDADVA

1: 13.2; 2: 27.5
